Sourced from paper PMC2849840

Assay: Bidirectional transepithelial transport of [3H]lopinavir across MDCK-MDR1 cells
Format: in vitro ADME
Settings: dog, MDCK-MDR1, pH 7.4, PappA-B, 25 mM HEPES in DPBS, MDCK-MDR1, 37 °C
ENDPOINT NAME: Papp A→B at 0.5 μCi/mL (nm/s)
State just the number; it will be interpreted in nm/s.

Query :: # lookup: Papp A→B at 0.5 μCi/mL of Cc1cccc(C)c1OCC(=O)N[C@@H](Cc1ccccc1)[C@@H](O)C[C@H](Cc1ccccc1)NC(=O)[C@H](C(C)C)N1CCCNC1=O
Result :: 228

====

Assay: Bidirectional transepithelial transport of [3H]lopinavir across MDCK-MDR1 cells
Format: in vitro ADME
Details: dog, MDCK-MDR1, pH 7.4, PappB-A, 25 mM HEPES in DPBS, MDCK-MDR1, 37 °C
ENDPOINT NAME: Papp B→A at 0.5 μCi/mL (×10⁻⁶ cm/s)
Report the value in ×10⁻⁶ cm/s with no unit label.

Query :: Name the recorded Papp B→A at 0.5 μCi/mL for Cc1cccc(C)c1OCC(=O)N[C@@H](Cc1ccccc1)[C@@H](O)C[C@H](Cc1ccccc1)NC(=O)[C@H](C(C)C)N1CCCNC1=O .
Result :: 165
